experiment: Oral bioavailability in rat; format: ADME, organism-based; settings: in vivo
Value Type: bioavailability (%)
Give your result in % as a bare value.

What value of measured bioavailability is listed for N=C(N)c1cccc(OC(C(=O)Nc2ccc(C(=O)N3CCCC3)cc2)c2ccccc2)c1 (configuration not stated) ?
5

Now consider N=C(N)c1cccc(OC(C(=O)Nc2ccc(-c3ccccc3S(N)(=O)=O)cc2)c2ccccc2)c1 (configuration not stated) .
5

====

A set of molecules tested on UniProt:P00734, with measured IC50:

Please report the recorded IC50 for `N=C(N)c1cccc(OCC(=O)Nc2ccc(C(=O)N3CCCC3)cc2)c1` .
> 10 µM

Do the same for `N=C(N)c1ccc(O)c(OCC(=O)Nc2ccc(-c3ccccc3S(N)(=O)=O)cc2)c1` please
> 10 µM

# iterate: N=C(N)c1cccc(OC(C(=O)Nc2ccc(-n3ccc(C(F)(F)F)n3)cc2)c2ccccc2)c1 (stereo unspecified)
> 10 µM

Request: `N=C(N)c1cccc(OCC(=O)Nc2ccc(C(=O)N3CCCCC3)cc2)c1`
> 10 µM

Now the same for N=C(N)c1cccc(OC(C(=O)Nc2cc(Cl)c(-n3cccc3)cc2Cl)c2ccccc2)c1 (stereo unspecified)
4.09 µM

How about `N=C(N)c1cccc(OCC(=O)Nc2ccc(C(=O)N3CCOCC3)cc2)c1` ?
> 10 µM

Also, N=C(N)c1cccc(OC(C(=O)Nc2ccc(C(=O)N3CCCC3)cc2Br)c2ccccc2)c1 (stereo unspecified) please.
> 10 µM

Query N=C(N)c1cccc(OC(C(=O)Nc2ccc(-c3ccccc3S(N)(=O)=O)cc2)c2ccccc2)c1 (stereo unspecified) next
> 10 µM

Now give it for N=C(N)c1cccc(OC(C(=O)Nc2ccc(-c3ccccc3S(N)(=O)=O)cc2Br)c2ccccc2)c1 (stereo unspecified) too.
8.64 µM

Next molecule up: N=C(N)c1cccc(OCC(=O)Nc2ccc(C(=O)N3CCCC3C(=O)O)cc2)c1 (stereo unspecified)
> 10 µM

Entry `N=C(N)c1cccc(OCCC(=O)Nc2ccc(-c3ccccc3S(N)(=O)=O)cc2)c1` please
> 10 µM

====

# log10(IC50) per entry for Serine protease 1 (Homo sapiens, UniProt P07477)
Please note: log10 values; quantity IC50; unit nM.

Quick check: log10(IC50) of `N=C(N)c1cccc(OCC(=O)Nc2ccc(C(=O)N3CC=CC3)cc2)c1` ?
2.94

Entry to check: `N=C(N)c1cccc(OCC(=O)Nc2ccc(-c3ccccc3S(N)(=O)=O)cc2)c1`
3.53

Also N=C(N)c1cccc(OC(C(=O)Nc2ccc(-c3ccccc3S(N)(=O)=O)cc2F)c2ccccc2)c1 (stereo unspecified) ?
3.99

Let us now turn to N=C(N)c1cccc(OC(C(=O)Nc2cc(Cl)c(-n3cccc3)cc2Cl)c2ccccc2)c1 (stereo unspecified)
3.94

Cool, now `N=C(N)c1ccc(O)c(OCC(=O)Nc2ccc(C(=O)N3CCCC3)cc2)c1`
2.45

Then what about the compound N=C(N)c1cccc(OC(C(=O)Nc2ccc(C(=O)N3CCCC3)cc2)c2ccccc2)c1 (stereo unspecified) ?
2.24

Also need `N=C(N)c1cccc(OCCC(=O)Nc2ccc(-c3ccccc3S(N)(=O)=O)cc2)c1` , thanks.
3.41

And `N=C(N)c1ccc(O)c(OCC(=O)Nc2ccc(-c3ccccc3S(N)(=O)=O)cc2)c1` ?
3.36

And `N=C(N)c1cccc(OCC(=O)Nc2ccc(C(=O)N3CCC3)cc2)c1` ?
3.31

Next entry: CC(C)(C)OC(=O)C1CCCN1C(=O)c1ccc(NC(=O)COc2cccc(C(=N)N)c2)cc1 (stereo unspecified)
3.82

Cited source: ChEMBL document CHEMBL1133928
